- System: MCF-7 cells
- ASSAY COMMENT: In vitro cell proliferation assay by BrdU method
- Type: cell-based
- CONDITION CONTEXT: Homo sapiens, MCF7, 72 hours, 10% FBS
pIC50: −log10 of the molar value.
PARAMETER: pIC50

                                   compound  parameter  observed_value
0  CCN1CCN(Cc2cnc3cc2NC(=O)CC(C)n2c(C)nc4c(F)cc(cc42)-c2nc(ncc2F)N3)CC1 (stereo not shown) [Example 1]      pIC50            6.85

A. CCN1CCN(Cc2cnc3cc2NC(=O)C[C@H](C)n2c(C)nc4c(F)cc(cc42)-c2nc(ncc2F)N3)CC1 [Example 3]
B. CCN1CCN(Cc2cnc3cc2NC(=O)CCn2c(C)nc4c(F)cc(cc42)-c2nc(ncc2F)N3)CC1 [Example 4]
C. CCN1CCN(Cc2cnc3cc2NC(=O)C[C@@H](C)n2c(C)nc4c(F)cc(cc42)-c2nc(ncc2F)N3)CC1 [Example 2]
Q) Please order the records by their reported pIC50, lowest number first. Response format: the labels, sorted as the prompt asks.
A) A, B, C

###

- TGT: CDK4/D3 (Homo sapiens, UniProt P11802)
- Sequence (P11802 whole entry, species assumed): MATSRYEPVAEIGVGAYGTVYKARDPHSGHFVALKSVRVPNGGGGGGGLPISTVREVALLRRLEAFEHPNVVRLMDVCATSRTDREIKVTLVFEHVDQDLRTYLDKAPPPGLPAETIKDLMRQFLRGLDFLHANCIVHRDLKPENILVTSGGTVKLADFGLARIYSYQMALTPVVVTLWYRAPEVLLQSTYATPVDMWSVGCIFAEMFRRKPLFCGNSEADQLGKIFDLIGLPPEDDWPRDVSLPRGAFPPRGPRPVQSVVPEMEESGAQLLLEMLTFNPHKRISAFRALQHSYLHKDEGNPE
- Sequence (P30281 whole entry partner, species assumed): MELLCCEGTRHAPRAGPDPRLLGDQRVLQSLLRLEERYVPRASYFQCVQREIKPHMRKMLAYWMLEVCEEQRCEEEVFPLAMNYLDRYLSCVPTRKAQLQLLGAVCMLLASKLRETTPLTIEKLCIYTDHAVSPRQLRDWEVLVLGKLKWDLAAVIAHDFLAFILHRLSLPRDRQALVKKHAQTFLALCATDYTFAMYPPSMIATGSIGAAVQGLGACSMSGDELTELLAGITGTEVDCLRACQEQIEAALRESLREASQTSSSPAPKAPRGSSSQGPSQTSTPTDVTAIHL
- ASSAY COMMENT: Inhibitory activity on CDK4 kinase by Caliper Mobility Shift method
- CONDITION CONTEXT: CDK4/D3, 28° C. for 5 hours
PARAMETER: IC50 (nM)

Observe how each entry below is paired with its result.
>>> df
                                   compound  unit_descriptor  observed_value
0  CCN1CCN(Cc2cnc3cc2NC(=O)C[C@H](C)n2c(C)nc4c(F)cc(cc42)-c2nc(ncc2F)N3)CC1               nM              15
1  CCN1CCN(Cc2cnc3cc2NC(=O)CC(C)n2c(C)nc4c(F)cc(cc42)-c2nc(ncc2F)N3)CC1 (stereo not shown)               nM             0.7

A. CCN1CCN(Cc2cnc3cc2NC(=O)C[C@@H](C)n2c(C)nc4c(F)cc(cc42)-c2nc(ncc2F)N3)CC1
B. CCN1CCN(Cc2cnc3cc2NCCC(C)n2c(C)nc4c(F)cc(cc42)-c2nc(ncc2F)N3)CC1 (stereo not shown)
Q) Hi! Which is lower in terms of IC50, the first one A or the second one B ? Returns: label corresponding to the selected item.
A) A
(A: 0.49 nM, B: 21 nM)

###

- TGT: CDK4/D3 (Homo sapiens)
- ASSAY COMMENT: Inhibitory activity on CDK4 kinase by Caliper Mobility Shift method
- CONDITION CONTEXT: CDK4/D3, 28° C. for 5 hours
pIC50: −log10 of the molar value.
PARAMETER: pIC50

A. CCN1CCN(Cc2cnc3cc2NC(=O)CCn2c(C)nc4c(F)cc(cc42)-c2nc(ncc2F)N3)CC1 [Example 4]
B. CCN1CCN(Cc2cnc3cc2NC(=O)CC2(CC2)n2c(C)nc4c(F)cc(cc42)-c2nc(ncc2F)N3)CC1 [Example 9]
C. CCN1CCN(Cc2cnc3cc2NC(=O)CC(C)(C)n2c(C)nc4c(F)cc(cc42)-c2nc(ncc2F)N3)CC1 [Example 8]
D. CCN1CCN(Cc2cnc3cc2NC(=O)CC(C)n2ccc4ccc(cc42)-c2nc(ncc2F)N3)CC1 (stereo not shown) [Example 7]
Q) Sort the entries above by pIC50, largest first. Response format: the labels, sorted as the prompt asks.
A) A, D, B, C

Reference source: patent US20220017520A1
